Reported values of Euclidean distance for individual entries
System: OVCAR4
ASSAY METHOD TEXT: Euclidean distance of Cell Painting phenotypic profile (signed KS, 77 features) to DMSO centroid (dimensionless distance); 5 or 10 uM (library dependent); higher = stronger phenotypic change vs DMSO (phenoactivity)
PROTOCOL CONDITIONS: 48 h
Structures can show the parent of a compound that is named as a salt.
Please reply with the value in numeric form only.

O=c1c2ccccc2oc2ccccc12 | 1.14
OCCOCCN1CCN(C2=Nc3ccccc3Sc3ccccc32)CC1 | 0.901
COc1cc2ncnc(Nc3cccc(Cl)c3F)c2cc1OC(=O)N1CCN(C)C[C@H]1C | 1.33
CCOC(=O)c1c(N)sc2c1CCN(Cc1ccccc1)C2 [Tinoridine hydrochloride] | 1.31
COc1cc(/C=C/C(=O)N2CCN(CC(=O)N3CCCC3)CC2)cc(OC)c1OC [Cinepazide maleate] | 1.41

Data request, read-out Euclidean distance, for `CC(=O)OCC1=C(C(=O)O)N2C(=O)[C@@H](NC(=O)CSC(=NC(C)C)NC(C)C)[C@H]2SC1`
1.82

Data request, read-out Euclidean distance, for CC(C)(C)NCC(O)c1ccc(O)c(CO)c1 (configuration not stated) [Salbutamol Sulfate]
1.78

Data request, read-out Euclidean distance, for CCCCOc1cc(C(=O)OCCN(CC)CC)ccc1N [Oxybuprocaine HCl]
1.1

====

Test system: HEPG2
ASSAY METHOD TEXT: Euclidean distance of Cell Painting phenotypic profile (signed KS, 77 features) to DMSO centroid (dimensionless distance); 5 or 10 uM (library dependent); higher = stronger phenotypic change vs DMSO (phenoactivity)
PROTOCOL CONDITIONS: 48 h
Counter-ions that a name gives are not always drawn.
Using Euclidean distance as the sorting value, the categories are lower range (below 0.7), middle range (0.7 to below 1), upper range (1 or more)

O=c1c(-c2ccc(O)cc2)coc2cc(O)ccc12 | lower range
COc1ccc2cc([C@H](C)C(=O)O)ccc2c1 [Naproxen Sodium] | lower range
N=C(N)N [Guanidine HCl] | lower range
C[C@H]1CNC(=O)c2cnn3ccc(nc23)N[C@H](C)c2cc(F)ccc2O1 | upper range

Category of `Oc1c(Cl)cc(Cl)c(Cl)c1Cc1c(O)c(Cl)cc(Cl)c1Cl` , please.
upper range

Category of `CN1C(=O)C(C)(C)Oc2c(-c3cn(C)c(=O)c4[nH]ccc34)cc(S(C)(=O)=O)cc21` , please.
upper range

Category of CC(C[N+](C)(C)C)OC(N)=O (configuration not stated) [Bethanechol chloride] , please.
upper range

Category of `Nc1nc(F)nc2c1ncn2[C@@H]1O[C@H](CO)[C@@H](O)[C@@H]1O` , please.
upper range

Category of `COc1ccc(C(=O)Nc2sc3c(c2C(N)=O)CCCC3)cc1OC` , please.
middle range

====

System: A549
ASSAY METHOD TEXT: Euclidean distance of Cell Painting phenotypic profile (signed KS, 77 features) to DMSO centroid (dimensionless distance); 5 or 10 uM (library dependent); higher = stronger phenotypic change vs DMSO (phenoactivity)
PROTOCOL CONDITIONS: 48 h
Counter-ions that a name gives are not always drawn.
Reported values of Euclidean distance for individual entries
Please reply with the value in numeric form only.

Examples with answers:
CC(=O)OCC[N+](C)(C)C [Acetylcholine Chloride] | 0.848
NCCCC[C@@H]1NC(=O)[C@@H](Cc2ccccc2)NC(=O)[C@H](CC(=O)O)NC(=O)CNC(=O)[C@H](CCCN=C(N)N)NC1=O [Cyclo (-RGDfK)] | 1
NC[C@@H]1O[C@H](O[C@H]2[C@@H](O)[C@H](O[C@@H]3[C@@H](O)[C@H](N)C[C@H](N)[C@H]3O[C@H]3O[C@H](CO)[C@@H](O)[C@H](O)[C@H]3N)O[C@@H]2CO)[C@H](N)[C@@H](O)[C@@H]1O [Paromomycin Sulfate] | 1.06

Data request, read-out Euclidean distance, for `O=C(O)/C=C/c1ccc(O)c(O)c1`
0.603

Data request, read-out Euclidean distance, for `CN1CC[C@@H](NC(=O)Nc2ccc(C#N)cc2)C[C@@H]1c1nc2ccccc2[nH]1`
1.79

Source of measurements: the supplement of paper PMC10127200
